# testName: in vivo
# conditionsUsed: male, CD-1, mouse, sc, 3 mg/kg

smilesData	Cmax [ng/mL]
C[C@@H](NCCCc1cccc(C(F)(F)F)c1)c1cccc2ccccc12	58.9
